Exercise: for every item that follows, state its recorded Human Primary Hepatocyte Editing % 500 ng/mL.
Test system: ANGPTL3 gene
protocol.details: ANGPTL3 gRNA/SpCas9 editing in primary human hepatocytes (Table 3)
Assay type: cell-based

Item GA127: ANGPTL3 gRNA; protospacer AACATGATGGTAAGACACTT (SEQ ID NO: 125) (nucleic acid, 2'-O-methyl at 1, 2, other sugars and backbone not given here; further chemistry not fully specified) guide: AACATGATGGTAAGACACTTGTTTTAGAGCTAGAAATAGCAAGTTAAAATAAGGCTAGTCCGTTATCAACTTGAAAAAGTGGCACCGAGTCGGTGCTTTT has what recorded Human Primary Hepatocyte Editing % 500 ng/mL?
18.74%

Item GA137: ANGPTL3 gRNA; protospacer TATCAGGTAAAACCTGTCTA (SEQ ID NO: 135) (nucleic acid, 2'-O-methyl at 1, 2, other sugars, backbone and T or U not given here; further chemistry not fully specified) guide: UATCAGGTAAAACCTGTCTAGTTTTAGAGCTAGAAATAGCAAGTTAAAATAAGGCTAGTCCGTTATCAACTTGAAAAAGTGGCACCGAGTCGGTGCTTTT has what recorded Human Primary Hepatocyte Editing % 500 ng/mL?
29.70%

Item GA130: ANGPTL3 gRNA; protospacer ATGATGGTAAGACACTTTGG (SEQ ID NO: 128) (nucleic acid, 2'-O-methyl at 1, 2, other sugars, backbone and T or U not given here; further chemistry not fully specified) guide: AUGATGGTAAGACACTTTGGGTTTTAGAGCTAGAAATAGCAAGTTAAAATAAGGCTAGTCCGTTATCAACTTGAAAAAGTGGCACCGAGTCGGTGCTTTT has what recorded Human Primary Hepatocyte Editing % 500 ng/mL?
17.09%
